Test system: PRMT1 (protein arginine N-methyltransferase 1)
assayExplanation: PRMT1 binders on small-molecule microarrays, primary screen, biochemical, small-molecule microarray, 635 nm fluorescence (AID 1088);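 also: binding of Prmt1 protein to compounds spotted on small-molecule microarray slides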
conditionContext: small-molecule microarray binding, higher = more signal

{"molecule": "CC(CCN1CCCc2nc(C)c(C)cc21)=NOC(C)CN1CCCCc2nc(C)c(C)cc21 (configuration not stated)", "composite z-score": 1.49}
{"molecule": "COC(=O)CC=C[C@@H](C)[C@@H](C=NO[C@H](C)c1cn([C@@H]2COC[C@H]2O)nn1)NS(=O)(=O)c1ccc(C)cc1", "composite z-score": 0.274}
{"molecule": "CO[C@@H]1COC(=O)[C@@H](C)COC(=O)[C@@H](C)NC(=O)CC=C[C@@H]1C", "composite z-score": 1.55}
{"molecule": "COc1cccc([C@H]2Oc3ccc(OC)cc3C(=NOC[C@@H](C)[C@H](OCc3ccccc3)C(C)C)[C@@H]2O)c1", "composite z-score": 0.169}
{"molecule": "CO[C@H]1COC(=O)CC=C[C@H](C)[C@@H](OC)COC(=O)[C@H](C)COC(=O)CC=C[C@@H]1C", "composite z-score": 0.765}
{"molecule": "CCCNC(=O)OC[C@H]1O[C@H](CCON=C(C)CCC(=O)OC[C@H]2O[C@H](c3ccccc3)C=C[C@@H]2Oc2ccc(OC)cc2)C=C[C@@H]1Oc1ccc(OC)cc1", "composite z-score": -1.37}
{"molecule": "CCN1C(=O)[C@@H]2[C@H]3C(=CC[C@@H]2C1=O)C1(OCCCO1)[C@H]1O[C@H]1[C@H]3O", "composite z-score": 1.44}

====

Tested on: Inhibin beta A chain (activin A)
assayExplanation: INHBA (activin A) binders on microarrays, primary screen, biochemical, small-molecule microarray, 635 nm fluorescence scan (AID 1107);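 also: mouse activin A protein probed at 4.33 µg/mL on printed slides; score merges bound-protein fluorescence near 667 nm with spot signal-to-noise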
conditionContext: small-molecule microarray binding, higher = more signal
Measured composite z-score values are reported for all entries that follow.

{"compound": "CC(CCN1CCc2nc(-c3ccccc3)c(-c3ccccc3)cc2C1)=NOC[C@@H](O)[C@H]1O[C@@H]2OC(C)(C)O[C@@H]2[C@H]1O", "assaySystem": "Inhibin beta A chain (activin A)", "composite z-score": 0.376}
{"compound": "Cc1ccc(S(=O)(=O)n2c3ccccc3c3nnc(C(=O)c4ccccc4)nc32)cc1", "assaySystem": "Inhibin beta A chain (activin A)", "composite z-score": 0.546}
{"compound": "CCOC(=O)[C@H](CC(C)C)NC(=O)CCC1CC(OC(=O)NCc2cccc3ccccc23)CC2(CCCC(COC(=O)NCC3CCCCC3)O2)O1 (some centres undefined)", "assaySystem": "Inhibin beta A chain (activin A)", "composite z-score": 0.0385}
{"compound": "CC(C)=CCCC(C)=CCON=C1C[C@@H](O)[C@@H](O)[C@@H]2[C@@H]3C(=O)N(c4ccc(F)cc4F)C(=O)[C@@H]3CC[C@@H]12", "assaySystem": "Inhibin beta A chain (activin A)", "composite z-score": 1.04}
{"compound": "C[C@@H]1C=CCC(=O)OC[C@H]2O[C@@H](C=C[C@@H]2O)[C@H](C)C=CCC(=O)OC1", "assaySystem": "Inhibin beta A chain (activin A)", "composite z-score": 1.91}
{"compound": "CC(=O)OC[C@H]1O[C@@H](ON=C(C)CCN2CCCc3nc(C)c(C)cc32)[C@H](OC(C)=O)[C@@H](OC(C)=O)[C@@H]1OC(C)=O", "assaySystem": "Inhibin beta A chain (activin A)", "composite z-score": -0.263}
{"compound": "CO[C@@H]1COC(=O)[C@H](CCSC)NC(=O)CC=C[C@@H](C)COC(=O)[C@H](C)NC(=O)CC=C[C@H]1C", "assaySystem": "Inhibin beta A chain (activin A)", "composite z-score": -0.0263}
{"compound": "CCOC(=O)NN=C1C[C@@H](O)[C@@H](O)[C@@H]2[C@@H]3C(=O)N([C@@H](C)c4ccccc4)C(=O)[C@@H]3CC[C@@H]12", "assaySystem": "Inhibin beta A chain (activin A)", "composite z-score": 1.43}
{"compound": "CCOC(=O)[C@H](CC(C)C)NC(=O)CCC1CC(OC(=O)NCc2cccc3ccccc23)CC2(CCCC(COC(=O)NCCc3ccc(Cl)cc3)O2)O1 (some centres undefined)", "assaySystem": "Inhibin beta A chain (activin A)", "composite z-score": -0.293}
{"compound": "CCOC(=O)[C@H](Cc1ccccc1)NC(=O)CCC1CC(OC(=O)NCc2cccc3ccccc23)CC2(CCCC(COC(=O)NCCC(C)C)O2)O1 (some centres undefined)", "assaySystem": "Inhibin beta A chain (activin A)", "composite z-score": 0.388}
{"compound": "CCOC(=O)[C@H](Cc1ccccc1)NC(=O)CCC1CC(OC(=O)NCc2cccc3ccccc23)CC2(CCCC(COC(=O)NCc3ccccc3)O2)O1 (some centres undefined)", "assaySystem": "Inhibin beta A chain (activin A)", "composite z-score": 0.103}
{"compound": "COc1cccc([C@@H]2Oc3ccc(OC)cc3C(=O)[C@H]2O)c1", "assaySystem": "Inhibin beta A chain (activin A)", "composite z-score": 0.0204}
{"compound": "O=C(NN=C1C[C@@H](O)[C@@H](O)[C@@H]2[C@@H]3C(=O)N(C4CCCCC4)C(=O)[C@@H]3CC[C@H]12)OCc1ccccc1", "assaySystem": "Inhibin beta A chain (activin A)", "composite z-score": -0.0726}
{"compound": "CCOC(=O)NN=C1C[C@@H](O)[C@@H](O)[C@@H]2[C@@H]3C(=O)N([C@@H](C)c4ccccc4)C(=O)[C@@H]3CC[C@H]12", "assaySystem": "Inhibin beta A chain (activin A)", "composite z-score": 0.121}

Data origin: PubChem BioAssay
